system: Phospho-Rb (Ser807/811) in OVCAR3 cells; assay: Phospho-Rb expression inhibition in OVCAR3 cells quantified by In Cell Western; format: cell-based; conditions: Homo sapiens, OVCAR-3, 24 hours, read-out: OVCAR-3 pRb IC50

structure	IC50
[2H]C1([2H])Oc2cc(ccn2)Nc2[nH]nc(c2Cl)[C@H]2CC[C@H](C2)OC(=O)NC2CC1C2	50 to 250 nM
C[C@H]1CCCNC(=O)O[C@@H]2CC[C@@H](C2)c2cc([nH]n2)Nc2cnnc(c2)O1	10 to 50 nM
O=C1NC23CC(CCCc4cc(cc(C(F)F)n4)Nc4cc(n[nH]4)[C@H]4CC[C@H](C4)O1)(C2)C3	≤ 2 nM
C[C@H]1CCCCc2cc(ccn2)Nc2cc(n[nH]2)[C@H]2CC[C@H](C2)OC(=O)N1	10 to 50 nM

----------
Each entry below carries its recorded pIC50.
target: CDK2-CYCLIN E1 (Homo sapiens, UniProt P24941); test: CDK protein kinase inhibition by ADP-Glo assay, CDK2-CYCLIN E1; format: biochemical; details: ADP-Glo, 1000 μM ATP; Table 27; read-out: CDK2-CYCLINE, IC50
pIC50: −log10 of the molar value.

structure	pIC50
[2H]C1([2H])CC[C@H](C)NC(=O)O[C@@H]2CC[C@@H](C2)c2cc([nH]n2)Nc2ccnc(c2)O1	7.30 to 8.00
[2H]C1([2H])Oc2cc(ccn2)Nc2cc(n[nH]2)[C@H]2CC[C@H](C2)OC(=O)N[C@H]2C[C@H]1C2	≥ 8.00

----------
target: CDK6-CYCLIN D3 (Homo sapiens, UniProt Q00534); experiment: CDK protein kinase inhibition by ADP-Glo assay, CDK6-CYCLIN D3; assay type: biochemical; details: Table 37; recombinant CDK kinase; read-out: CDK6-CYCLIND3, IC50
Sequence (Q00534 whole entry): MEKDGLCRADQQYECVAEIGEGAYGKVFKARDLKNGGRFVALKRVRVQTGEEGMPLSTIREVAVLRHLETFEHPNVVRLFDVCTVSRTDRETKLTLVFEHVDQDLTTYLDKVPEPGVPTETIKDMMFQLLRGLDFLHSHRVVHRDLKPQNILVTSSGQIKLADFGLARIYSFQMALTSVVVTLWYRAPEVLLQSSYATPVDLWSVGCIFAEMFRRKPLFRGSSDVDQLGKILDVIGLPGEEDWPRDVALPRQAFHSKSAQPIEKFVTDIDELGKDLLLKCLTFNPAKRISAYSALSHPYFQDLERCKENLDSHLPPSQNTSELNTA
Sequence (P30281 whole entry partner): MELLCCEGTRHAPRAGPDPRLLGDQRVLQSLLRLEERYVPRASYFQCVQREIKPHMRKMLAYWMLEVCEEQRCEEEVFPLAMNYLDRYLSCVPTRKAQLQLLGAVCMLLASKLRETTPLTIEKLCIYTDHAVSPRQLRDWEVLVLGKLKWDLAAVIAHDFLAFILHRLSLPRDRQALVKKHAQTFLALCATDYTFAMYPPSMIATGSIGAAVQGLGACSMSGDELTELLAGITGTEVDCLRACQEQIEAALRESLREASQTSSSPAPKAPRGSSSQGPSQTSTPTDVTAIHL

structure	IC50
O=C1NC2CC(COc3cc(ccn3)Nc3cc(n[nH]3)C3C[C@@H](F)[C@H](C3)O1)C2	10 to 50 nM
O=C1NC2CC(COc3cc(ccn3)Nc3[nH]nc(c3F)C3C[C@H](F)[C@@H](C3)O1)C2	100 to 500 nM
C[C@H]1CC(F)(F)COc2cc(ccn2)Nc2[nH]nc(c2F)[C@H]2CC[C@H](C2)OC(=O)N1	> 500 nM
O=C1NC2CC(COc3cc(ccn3)Nc3[nH]nc(c3F)C3C[C@@H](F)[C@H](C3)O1)C2	100 to 500 nM
O=C1NC2CC(COc3cc(ccn3)Nc3cc(n[nH]3)C3C[C@H](F)[C@@H](C3)O1)C2	10 to 50 nM

----------
molecular target: CDK4-CYCLIN D1 (Homo sapiens); assay: CDK protein kinase inhibition by ADP-Glo assay, CDK4-CYCLIN D1; assay type: biochemical; settings: ADP-Glo, 1000 μM ATP; Table 15; read-out: CDK4-CYCLIND1, IC50
Sequence (P11802 whole entry): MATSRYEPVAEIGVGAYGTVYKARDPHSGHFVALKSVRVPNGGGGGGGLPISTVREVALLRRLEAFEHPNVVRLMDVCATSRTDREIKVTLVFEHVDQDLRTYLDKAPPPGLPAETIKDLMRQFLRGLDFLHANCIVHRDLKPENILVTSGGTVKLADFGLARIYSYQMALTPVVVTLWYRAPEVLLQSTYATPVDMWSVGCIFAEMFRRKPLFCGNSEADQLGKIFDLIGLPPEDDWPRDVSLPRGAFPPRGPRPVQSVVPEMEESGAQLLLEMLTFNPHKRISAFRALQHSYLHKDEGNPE
Sequence (P24385 whole entry partner): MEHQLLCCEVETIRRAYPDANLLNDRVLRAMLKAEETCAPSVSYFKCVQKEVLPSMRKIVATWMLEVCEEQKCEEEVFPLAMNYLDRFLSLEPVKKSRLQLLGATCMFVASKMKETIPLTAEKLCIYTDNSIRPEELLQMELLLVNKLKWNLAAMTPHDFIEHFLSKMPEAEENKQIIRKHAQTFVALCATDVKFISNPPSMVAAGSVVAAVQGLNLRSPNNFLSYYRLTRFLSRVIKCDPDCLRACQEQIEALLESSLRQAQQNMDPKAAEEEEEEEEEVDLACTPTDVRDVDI
Each entry below carries its recorded IC50.

structure	IC50
C[C@H]1OCCCNC(=O)O[C@@H]2CC[C@@H](C2)c2cc([nH]n2)Nc2ccnc1c2	100 to 500 nM
O=C1NC23CC(C/C=C/c4cncc(c4)Nc4cc(n[nH]4)[C@H]4CC[C@H](C4)O1)(C2)C3	10 to 50 nM

----------
Each entry below carries its recorded IC50.
system: Phospho-Rb (Ser807/811) in OVCAR3 cells; test: Phospho-Rb expression inhibition in OVCAR3 cells quantified by In Cell Western; assay type: cell-based; conditions: 24 hours, read-out: OVCAR-3 pRb IC50

molecule	IC50
CC1CCCNC(=O)OC2CCC(C2)c2cc([nH]n2)Nc2cc(c[n+]([O-])c2)O1 (centres unmarked) [Compound 154]	50 to 250 nM
CC1CCCNC(=O)OC2CCC(C2)c2cc([nH]n2)Nc2cc(c[n+]([O-])c2)O1 (centres unmarked) [Compound 153]	> 250 nM

----------
biological target: CDK6-CYCLIN D3 (Homo sapiens); assay: CDK protein kinase inhibition by ADP-Glo assay, CDK6-CYCLIN D3; type: biochemical; conditions: ADP-Glo, 1000 μM ATP; Table 17; read-out: CDK6-CYCLIND3, IC50
Each entry below carries its recorded IC50.

compound	IC50
O=C1NC2CC3(C2)CC(C3)Oc2cc(ccn2)Nc2cc(n[nH]2)[C@H]2CC[C@H](C2)O1 [Compound 128]	10 to 50 nM
O=C1NC2(CCCCc3cc(ccn3)Nc3cc(n[nH]3)[C@H]3CC[C@H](C3)O1)CC2 [Compound 116]	10 to 50 nM
O=C1NC23CC(C/C=C/c4cc(ccn4)Nc4cc(n[nH]4)[C@H]4CC[C@H](C4)O1)(C2)C3 [Compound 107]	10 to 50 nM
C[C@@H]1CC23CC(C2)(C3)NC(=O)O[C@@H]2CC[C@@H](C2)c2cc([nH]n2)Nc2ccnc(c2)O1 [Compound 100]	100 to 500 nM
C[C@H]1CC23CC(C2)(C3)NC(=O)O[C@@H]2CC[C@@H](C2)c2cc([nH]n2)Nc2ccnc(c2)O1 [Compound 102]	100 to 500 nM

----------
biological target: CDK9-CYCLIN T1 (Homo sapiens, UniProt P50750); assay: CDK protein kinase inhibition by ADP-Glo assay, CDK9-CYCLIN T1; assay type: biochemical; conditions: CDK2 versus CDK9; Table 8
Sequence (P50750 whole entry): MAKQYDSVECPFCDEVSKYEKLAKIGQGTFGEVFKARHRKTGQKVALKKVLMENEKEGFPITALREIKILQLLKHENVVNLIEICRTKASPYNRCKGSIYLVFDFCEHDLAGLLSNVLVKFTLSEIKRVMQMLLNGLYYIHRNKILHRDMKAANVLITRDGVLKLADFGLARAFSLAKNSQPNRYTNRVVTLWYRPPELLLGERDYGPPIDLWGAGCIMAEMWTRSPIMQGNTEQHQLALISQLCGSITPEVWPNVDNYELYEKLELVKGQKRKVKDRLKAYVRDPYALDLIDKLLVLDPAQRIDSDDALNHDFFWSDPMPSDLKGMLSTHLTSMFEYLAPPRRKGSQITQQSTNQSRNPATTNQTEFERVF
Sequence (O60563 whole entry partner): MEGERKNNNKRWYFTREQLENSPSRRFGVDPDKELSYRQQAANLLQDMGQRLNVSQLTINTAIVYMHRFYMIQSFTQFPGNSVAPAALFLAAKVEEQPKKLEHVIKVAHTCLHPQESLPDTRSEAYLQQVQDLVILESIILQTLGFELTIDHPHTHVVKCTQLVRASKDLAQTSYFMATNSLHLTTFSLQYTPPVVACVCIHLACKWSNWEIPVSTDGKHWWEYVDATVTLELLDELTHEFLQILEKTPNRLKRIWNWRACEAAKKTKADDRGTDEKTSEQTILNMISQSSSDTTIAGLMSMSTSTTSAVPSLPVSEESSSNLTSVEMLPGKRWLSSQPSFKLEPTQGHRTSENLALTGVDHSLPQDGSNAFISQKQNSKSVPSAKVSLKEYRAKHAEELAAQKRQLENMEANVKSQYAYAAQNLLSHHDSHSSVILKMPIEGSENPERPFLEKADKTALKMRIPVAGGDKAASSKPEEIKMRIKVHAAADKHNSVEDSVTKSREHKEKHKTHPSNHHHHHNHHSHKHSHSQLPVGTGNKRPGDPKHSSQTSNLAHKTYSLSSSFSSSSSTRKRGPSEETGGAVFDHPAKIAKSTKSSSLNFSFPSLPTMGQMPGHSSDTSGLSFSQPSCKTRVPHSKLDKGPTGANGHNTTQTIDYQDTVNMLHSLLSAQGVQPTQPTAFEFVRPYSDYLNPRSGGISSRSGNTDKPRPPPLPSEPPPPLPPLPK
result.type: CDK2 Fold Sensitivity, CDK9

structure	measured.result
CC1(C)CCCOc2cc(ccn2)Nc2cc([nH]n2)[C@H]2CC[C@H](C2)OC(=O)N1	C (C, >50 and ≤100)
C[C@H]1CCCOc2cc(ccn2)Nc2cc([nH]n2)[C@H]2CC[C@H](C2)OC(=O)N1	B (B, >100 and ≤500)
O=C1NCCCCOc2cc(cc(C(F)F)n2)Nc2cc([nH]n2)[C@H]2CC[C@H](C2)O1	B (B, >100 and ≤500)
O=C1NCCCCCc2cc(cc(C(F)F)n2)Nc2cc([nH]n2)[C@H]2CC[C@H](C2)O1	C (C, >50 and ≤100)
O=C1NCCCCOc2cccc(c2)Nc2cc([nH]n2)[C@H]2CC[C@H](C2)O1	B (B, >100 and ≤500)
C[C@@H]1CCCOc2cc(ccn2)Nc2cc([nH]n2)[C@H]2CC[C@H](C2)OC(=O)N1	B (B, >100 and ≤500)

----------
Each entry below carries its recorded IC50.
target: UniProt Q00534; test: CDK protein kinase inhibition by ADP-Glo assay, CDK6-CYCLIN D3; format: biochemical; settings: ADP-Glo, 1000 μM ATP; Table 31; read-out: CDK6-CYCLIND3, IC50

compound	IC50
C[C@@H]1NC(=O)O[C@@H]2CC[C@@H](C2)c2cc([nH]n2)Nc2ccnc(c2)COCC1(F)F	10 to 50 nM
O=C1N[C@H]2C[C@@H](CC(F)(F)c3cc(ccn3)Nc3cc(n[nH]3)[C@H]3CC[C@H](C3)O1)C2 (single isomer, unassigned)	10 to 50 nM
C[C@H]1NC(=O)O[C@@H]2CC[C@@H](C2)c2cc([nH]n2)Nc2ccnc(c2)COCC1(F)F	10 to 50 nM
C[C@H]1CCCC(F)(F)c2cc(ccn2)Nc2cc(n[nH]2)[C@H]2CC[C@H](C2)OC(=O)N1	100 to 500 nM

----------
molecular target: CDK9-CYCLIN T1 (Homo sapiens, UniProt P50750); assay: CDK protein kinase inhibition by ADP-Glo assay, CDK9-CYCLIN T1; assay type: biochemical; conditions: ADP-Glo, 1000 μM ATP; Table 7; read-out: CDK9-CYCLINT1, IC50
pIC50: −log10 of the molar value.
Each entry below carries its recorded pIC50.

compound	subject.of.test	pIC50
C[C@@H]1CCCOc2cc(ccn2)Nc2cc([nH]n2)[C@H]2CC[C@H](C2)OC(=O)N1 [Compound 10]	CDK9-CYCLIN T1 (Homo sapiens, UniProt P50750)	< 6.30
O=C1NCCCCOc2cncc(c2)Nc2cc(n[nH]2)[C@H]2CC[C@H](C2)O1 [compound 104]	CDK9-CYCLIN T1 (Homo sapiens, UniProt P50750)	6.30 to 7.00
C[C@H]1CCCOc2cc(ccn2)Nc2cc([nH]n2)[C@H]2CC[C@H](C2)OC(=O)N1 [Compound 9]	CDK9-CYCLIN T1 (Homo sapiens, UniProt P50750)	< 6.30
CC1(C)CCCOc2cc(ccn2)Nc2cc([nH]n2)[C@H]2CC[C@H](C2)OC(=O)N1 [Compound 13]	CDK9-CYCLIN T1 (Homo sapiens, UniProt P50750)	7.00 to 7.30
O=C1NCCCCOc2cc(cc(C(F)F)n2)Nc2cc([nH]n2)[C@H]2CC[C@H](C2)O1 [Compound 16]	CDK9-CYCLIN T1 (Homo sapiens, UniProt P50750)	< 6.30
O=C1NCCCCCc2cc(cc(C(F)F)n2)Nc2cc([nH]n2)[C@H]2CC[C@H](C2)O1 [Compound 17]	CDK9-CYCLIN T1 (Homo sapiens, UniProt P50750)	7.00 to 7.30
O=C1NCCCCCc2cc(ccn2)Nc2cc([nH]n2)[C@H]2CC[C@H](C2)O1 [Compound 4]	CDK9-CYCLIN T1 (Homo sapiens, UniProt P50750)	6.30 to 7.00
O=C1NCCCCOc2cccc(c2)Nc2cc([nH]n2)[C@H]2CC[C@H](C2)O1 [Compound 105]	CDK9-CYCLIN T1 (Homo sapiens, UniProt P50750)	< 6.30
